Measured Cell binding FON (Fold Over Negative), listed per entry for reference.
Target: T1, mouse TIGIT on cells (Jurkat-mTIGIT) (mouse, UniProt P86176 29-249)
T1 construct: whole, on cells
T1 sequence (looked up): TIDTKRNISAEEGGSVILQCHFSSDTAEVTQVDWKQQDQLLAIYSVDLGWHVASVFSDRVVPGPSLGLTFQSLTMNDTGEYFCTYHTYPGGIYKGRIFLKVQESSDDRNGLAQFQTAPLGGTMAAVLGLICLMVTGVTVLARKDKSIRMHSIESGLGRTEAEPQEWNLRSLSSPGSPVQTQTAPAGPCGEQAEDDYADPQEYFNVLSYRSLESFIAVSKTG
Experiment: flow cytometry on Jurkat-mTIGIT, 100 nM antibody, vs untransfected Jurkat
Method: Antibodies were incubated with the cells for 20 min at 4° C. in FACS buffer. […] Geometric mean fluorecence intensity was analysed using LSR BD Fortessa. Cell binding was recorded as the median florescence intensity of PE on the transfected line compared to the un-transfected line for each antibody (Table 3).
Return type: number; implicit unit fold over negative.

binder | quantitative_readout
anti-TIGIT antibody clone 29478 (antibody, V domains shown, human IgG; Fab for 'Fab KD' columns) VH: EVQLVESGGGVVQPGRSLRLSCAASGFTFESYGMVWVRQAPGKGLEWVASILYDGSNRYYADSVKGRFTVSRDNSKNTLYLQMNSLRAEDTAVYYCARVSYYYDSVELRWAEYFQHWGQGTLVTVSS VL: EIVLTQSPATLSLSPGERATLSCRASQSVSSYLAWYQQKPGQAPRLLIYDASKRATGIPARFSGSGSGTDFTLTISSLEPEDFAVYYCQQVHNFPLTFGGGTKVEIK | 500
anti-TIGIT antibody clone 29513 (antibody, V domains shown, human IgG; Fab for 'Fab KD' columns) VH: QVQLVQSGAEVKKPGSSVKVSCKASGGTFQNYAISWVRQAPGQGLEWMGVIVPIFGTANYAQKFQGRVTVTADESTSTAYMELSSLRSEDTAVYYCARLHLGQKAYYGMDVWGQGTTVTVSS VL: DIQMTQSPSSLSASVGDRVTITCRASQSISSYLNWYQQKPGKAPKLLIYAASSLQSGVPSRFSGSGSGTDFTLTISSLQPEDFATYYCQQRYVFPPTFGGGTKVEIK | 406
anti-TIGIT antibody clone 26521 (antibody, V domains shown, Naive parent clone, VH1-69; human IgG; Fab for 'Fab KD' columns) VH: QVQLVQSGAEVKKPGSSVKVSCKASGGTFSSYAISWVRQAPGQGLEWMGGIIPIFGTANYAQKFQGRVTITADESTSTAYMELSSLRSEDTAVYYCARLHLGSSAYYGMDVWGQGTTVTVSS VL: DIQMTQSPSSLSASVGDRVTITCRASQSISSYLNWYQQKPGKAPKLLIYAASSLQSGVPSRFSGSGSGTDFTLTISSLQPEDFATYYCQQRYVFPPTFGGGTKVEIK | 218

Sure, the documented Cell binding FON (Fold Over Negative) for anti-TIGIT antibody clone 29494 (antibody, V domains shown, human IgG; Fab for 'Fab KD' columns) VH: QVQLQESGPGLVKPSETLSLTCTVSGGSISSGSYYLAWIRQPPGKGLEWIGSIFRSGSTYYNPSLESRVTISVDTSKNQFSLKLSSVTAADTAVYYCAIEGANFKDFGYVAFDIWGQGTMVTVSS VL: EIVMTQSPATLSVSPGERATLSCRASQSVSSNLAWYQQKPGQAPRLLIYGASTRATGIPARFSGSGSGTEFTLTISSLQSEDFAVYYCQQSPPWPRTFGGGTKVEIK is 511
